Test system: Staphylococcus epidermidis
Test: Antimicrobial activity against Staphylococcus epidermidis KCTC 1917 incubated for 18 to 20 hrs by broth microdilution assay
Assay type: functional
Conditions: read-out: MIC100
observation.type: MIC (µg/mL)
Provide the reading as a plain figure in µg/mL.

>  <compound>
N=C(N)NCCC[C@H](NC(=O)c1nn(CCC(c2ccccc2)c2ccccc2)cc1NC(=O)[C@H](CCCNC(=N)N)NC(=O)c1nn(CCC(c2ccccc2)c2ccccc2)cc1N)C(N)=O

>  <value.reported>
32

$$$$
>  <compound>
N=C(N)NCCC[C@H](NC(=O)c1nn(CCc2cccc3ccccc23)cc1NC(=O)[C@H](CCCNC(=N)N)NC(=O)c1nn(CCc2cccc3ccccc23)cc1NC(=O)[C@H](CCCNC(=N)N)NC(=O)c1nn(CCc2cccc3ccccc23)cc1N)C(N)=O

>  <value.reported>
64

$$$$
>  <compound>
N=C(N)NCCC[C@@H]1NC(=O)c2nn(CCC(c3ccccc3)c3ccccc3)cc2NC(=O)CSCC(C(N)=O)NC(=O)[C@H](CCCNC(=N)N)NC(=O)c2nn(CCC(c3ccccc3)c3ccccc3)cc2NC1=O (stereo partly drawn)

>  <value.reported>
64

$$$$

Then there is this compound:
INPUT: // returns reported MIC for input N=C(N)NCCC[C@H](NC(=O)c1nn(CCc2cccc3ccccc23)cc1NC(=O)[C@H](CCCNC(=N)N)NC(=O)c1nn(CCc2cccc3ccccc23)cc1N)C(N)=O
OUTPUT: 32

---

Test system: Staphylococcus epidermidis
Test: Antimicrobial activity against Staphylococcus epidermidis KCTC 1917 incubated for 18 to 20 hrs by broth microdilution assay
Type: functional
Settings: read-out: MIC100
observation.type: MIC

INPUT: Provide the documented MIC with Staphylococcus epidermidis as the system for N=C(N)NCCC[C@H](NC(=O)c1nn(CCc2cccc3ccccc23)cc1NC(=O)[C@H](CCCNC(=N)N)NC(=O)c1nn(CCc2cccc3ccccc23)cc1NC(=O)[C@@H](N)CCCNC(=N)N)C(N)=O
OUTPUT: 32 µg/mL

INPUT: Now the same for N=C(N)NCCC[C@H](NC(=O)c1nn(CCC(c2ccccc2)c2ccccc2)cc1NC(=O)[C@@H](N)CCCNC(=N)N)C(N)=O
OUTPUT: > 64 µg/mL

INPUT: Now the same for N=C(N)NCCC[C@H](NC(=O)c1nn(CCC(c2ccccc2)c2ccccc2)cc1NC(=O)[C@H](CCCNC(=N)N)NC(=O)c1nn(CCC(c2ccccc2)c2ccccc2)cc1NC(=O)[C@H](CCCNC(=N)N)NC(=O)c1nn(CCC(c2ccccc2)c2ccccc2)cc1N)C(N)=O
OUTPUT: 64 µg/mL

INPUT: Now the same for CCC(CC)Cn1cc(NC(=O)[C@@H](N)CCCNC(=N)N)c(C(=O)N[C@@H](CCCNC(=N)N)C(N)=O)n1
OUTPUT: > 64 µg/mL

INPUT: Now the same for N=C(N)NCCC[C@H](NC(=O)c1nn(CCC(c2ccccc2)c2ccccc2)cc1N)C(N)=O
OUTPUT: > 64 µg/mL

INPUT: Now the same for N=C(N)NCCC[C@H](NC(=O)c1nn(CCCc2ccccc2)cc1NC(=O)[C@@H](N)CCCNC(=N)N)C(N)=O
OUTPUT: > 64 µg/mL
